B1: library; a variant is named by its letters at N, in order (parent)
chain: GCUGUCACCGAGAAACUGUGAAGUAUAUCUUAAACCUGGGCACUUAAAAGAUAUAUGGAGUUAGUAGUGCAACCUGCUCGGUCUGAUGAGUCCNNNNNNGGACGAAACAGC

Variants of: B1
Experimental protocol: normalized RNA/DNA level with ligand (relative to sTRSVctl = 100) (log10 (% of sTRSVctl)); HEK293T; ligand: cyclic di-GMP (c-di-GMP-II aptamer); ligand concentration (+) RNA-Seq: 1 mM; higher = less ribozyme self-cleavage, higher mRNA level
Study conditions: reporter: mCherry (pCS4076), ligand present: yes
Assay endpoint: normalized RNA/DNA level with ligand (log10)
Just the number, please, no unit after it.

Sample records with normalized RNA/DNA level with ligand (log10):
Prompt line: Determine its reported normalized RNA/DNA level with ligand (log10): GCUGUCACCGAGAAACUGUGAAGUAUAUCUUAAACCUGGGCACUUAAAAGAUAUAUGGAGUUAGUAGUGCAACCUGCUCGGUCUGAUGAGUCCGGCUUUGGACGAAACAGC [GGCUUU]
Response line: 1.88

Prompt line: Please indicate normalized RNA/DNA level with ligand (log10) recorded for GCUGUCACCGAGAAACUGUGAAGUAUAUCUUAAACCUGGGCACUUAAAAGAUAUAUGGAGUUAGUAGUGCAACCUGCUCGGUCUGAUGAGUCCAGCCGGGGACGAAACAGC [AGCCGG]
Response line: 1.86

Prompt line: Please report the measured normalized RNA/DNA level with ligand (log10) for GCUGUCACCGAGAAACUGUGAAGUAUAUCUUAAACCUGGGCACUUAAAAGAUAUAUGGAGUUAGUAGUGCAACCUGCUCGGUCUGAUGAGUCCCAACGUGGACGAAACAGC [CAACGU]
Response line: 1.82

Prompt line: Name the recorded normalized RNA/DNA level with ligand (log10) of the item GCUGUCACCGAGAAACUGUGAAGUAUAUCUUAAACCUGGGCACUUAAAAGAUAUAUGGAGUUAGUAGUGCAACCUGCUCGGUCUGAUGAGUCCCGUUGGGGACGAAACAGC [CGUUGG] in your answer.
Response line: 1.85

Prompt line: Let me know recorded normalized RNA/DNA level with ligand (log10) for GCUGUCACCGAGAAACUGUGAAGUAUAUCUUAAACCUGGGCACUUAAAAGAUAUAUGGAGUUAGUAGUGCAACCUGCUCGGUCUGAUGAGUCCCGCUCGGGACGAAACAGC [CGCUCG] , thanks.
Response line: 1.88

New cases:
Prompt line: Recall and state the measured normalized RNA/DNA level with ligand (log10) for GCUGUCACCGAGAAACUGUGAAGUAUAUCUUAAACCUGGGCACUUAAAAGAUAUAUGGAGUUAGUAGUGCAACCUGCUCGGUCUGAUGAGUCCUACCUUGGACGAAACAGC [UACCUU] .
Response line: 1.82

Prompt line: Name the recorded normalized RNA/DNA level with ligand (log10) of the item GCUGUCACCGAGAAACUGUGAAGUAUAUCUUAAACCUGGGCACUUAAAAGAUAUAUGGAGUUAGUAGUGCAACCUGCUCGGUCUGAUGAGUCCGCGACGGGACGAAACAGC [GCGACG] in your answer.
Response line: 1.73

Prompt line: State its normalized RNA/DNA level with ligand (log10): GCUGUCACCGAGAAACUGUGAAGUAUAUCUUAAACCUGGGCACUUAAAAGAUAUAUGGAGUUAGUAGUGCAACCUGCUCGGUCUGAUGAGUCCACUUACGGACGAAACAGC [ACUUAC]
Response line: 1.84

Prompt line: Answer with the recorded normalized RNA/DNA level with ligand (log10) of GCUGUCACCGAGAAACUGUGAAGUAUAUCUUAAACCUGGGCACUUAAAAGAUAUAUGGAGUUAGUAGUGCAACCUGCUCGGUCUGAUGAGUCCUAAUGAGGACGAAACAGC [UAAUGA] only.
Response line: 1.77

Prompt line: Specify reported normalized RNA/DNA level with ligand (log10) for the variant shown: GCUGUCACCGAGAAACUGUGAAGUAUAUCUUAAACCUGGGCACUUAAAAGAUAUAUGGAGUUAGUAGUGCAACCUGCUCGGUCUGAUGAGUCCCAACUCGGACGAAACAGC [CAACUC]
Response line: 1.82

Prompt line: Input GCUGUCACCGAGAAACUGUGAAGUAUAUCUUAAACCUGGGCACUUAAAAGAUAUAUGGAGUUAGUAGUGCAACCUGCUCGGUCUGAUGAGUCCCGGUCAGGACGAAACAGC [CGGUCA] , output reported normalized RNA/DNA level with ligand (log10).
Response line: 1.59

Prompt line: Quote normalized RNA/DNA level with ligand (log10) reported for GCUGUCACCGAGAAACUGUGAAGUAUAUCUUAAACCUGGGCACUUAAAAGAUAUAUGGAGUUAGUAGUGCAACCUGCUCGGUCUGAUGAGUCCCCUUCGGGACGAAACAGC [CCUUCG] please.
Response line: 1.87

Cited source for all entries: the supplement of paper PMC6757056
